Values from the supplement of paper PMC4166925

- Tested on: SpTbr T-box DNA-binding domain (GST fusion);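 note: protein at 200 nM in PBS on universal double-stranded arrays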
- Sequence: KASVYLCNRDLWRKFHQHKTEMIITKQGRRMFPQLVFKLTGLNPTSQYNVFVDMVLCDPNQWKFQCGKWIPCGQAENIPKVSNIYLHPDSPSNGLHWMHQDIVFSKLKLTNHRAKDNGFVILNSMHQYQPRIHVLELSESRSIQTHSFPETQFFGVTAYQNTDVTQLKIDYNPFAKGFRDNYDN
- method_description: PBM E-score of 8-mer (E-score (dimensionless, -0.5 to 0.5)); higher = stronger binding preference
- condition_summary: the construct has about 5 more residues each side
The full ranking holds about 33,000 sequences; the median of “E-score (dimensionless, -0.5 to 0.5)” is about -0.046, and the highest 2% start at about 0.36. For the sample, the highest values were picked, then their nearest neighbours and some sequences at random.
attribute_measured: PBM E-score of 8-mer
// no unit, no text: just the number

Please review the entries below; each comes with its answer.
GCTCACAA    0.174
ACCACACT    0.328
ACTCGTAC    -0.0977
ATAACCGA    -0.206
TACAGCGA    -0.193
ACAAGTGG    0.355

Form field - read-out: PBM E-score of 8-mer; system: SpTbr T-box DNA-binding domain (GST fusion); submitted item: ACTAGGTC;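 note: protein at 200 nM in PBS on universal double-stranded arrays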
-0.14

Provide value of PBM E-score of 8-mer for this record tested with SpTbr T-box DNA-binding domain (GST fusion): AGACCTGA
-0.094

* * *

- System: SpTbr T-box DNA-binding domain (GST fusion);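 note: protein at 200 nM in PBS on universal double-stranded arrays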
- Sequence: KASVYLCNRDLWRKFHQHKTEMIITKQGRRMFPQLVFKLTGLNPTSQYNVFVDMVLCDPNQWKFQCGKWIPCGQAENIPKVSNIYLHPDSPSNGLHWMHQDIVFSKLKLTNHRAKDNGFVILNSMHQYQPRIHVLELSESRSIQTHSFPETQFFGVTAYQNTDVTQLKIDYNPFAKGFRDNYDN
- method_description: PBM E-score of 8-mer (E-score (dimensionless, -0.5 to 0.5)); Tbr is Tbrain of the sea star Patiria miniata (Pm) or the sea urchin Strongylocentrotus purpuratus (Sp); higher = stronger binding preference
- condition_summary: target sequence: T-box / the construct has about 5 more residues each side
The full ranking holds about 33,000 sequences; the median of “E-score (dimensionless, -0.5 to 0.5)” is about -0.046, and the highest 2% start at about 0.36. What follows is part of a selection rich in the highest values, with near analogues and random picks from the rest.
Please mark Met if the recorded PBM E-score of 8-mer is equal to or greater than 0.07, and Not met if it falls below.

Examples with answers:
CGCCACAG    Not met
GCACGCGC    Met
ACAGTGTG    Met
ATGTCAGA    Not met
ACACCCCG    Met

Hi team, for CACTTGCA , is the recorded PBM E-score of 8-mer at or above 0.07?
Met

Assess whether reported PBM E-score of 8-mer for CTGTCAAC sits at 0.07 or higher.
Met

Form field: PBM E-score of 8-mer at least 0.07? Entry: ACCGAGGA
Not met

Would you say GTGTCGCA shows PBM E-score of 8-mer at minimum 0.07?
Met

API: above_or_equal(metric=PBM E-score of 8-mer, cutoff=0.07) for item GGTGTTAC
Met

Hi, just wondering whether CCACTGCG shows PBM E-score of 8-mer of 0.07 or higher.
Not met
